Target under test: serotonin 1A receptor (Rattus norvegicus)
Construct: To the receptor fraction of the hippocampus were added a test compound and 0.5 nM of [^3H]; 8-hydroxy-dipropylaminotetralin; from tissue; host or cells: rat hippocampus membrane fraction
Sequence (P19327 whole entry): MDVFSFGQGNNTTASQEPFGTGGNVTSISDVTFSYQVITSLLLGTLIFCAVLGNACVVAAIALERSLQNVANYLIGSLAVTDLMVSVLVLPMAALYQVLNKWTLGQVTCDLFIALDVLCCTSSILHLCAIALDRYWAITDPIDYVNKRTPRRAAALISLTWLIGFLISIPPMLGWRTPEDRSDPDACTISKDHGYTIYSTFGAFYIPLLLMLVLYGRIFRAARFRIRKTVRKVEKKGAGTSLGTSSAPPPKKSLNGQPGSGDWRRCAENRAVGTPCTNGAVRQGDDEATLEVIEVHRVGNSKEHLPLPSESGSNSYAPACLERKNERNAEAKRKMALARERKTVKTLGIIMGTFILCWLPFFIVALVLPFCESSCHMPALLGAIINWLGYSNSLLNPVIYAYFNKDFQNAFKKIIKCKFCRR
Measurement protocol: Binding test on [3H] 8-hydroxy-dipropylaminotetralin, hippocampus receptor fraction
Set-up: species or system SD rats
Assay conditions: rat hippocampus receptor fraction, 0.5 nM [3H] 8-OH-DPAT, room temperature 30 min; read-out: 5HT1
pKi: −log10 of the molar value. Counter-ions that a name gives are not always drawn.
Parameter measured: pKi

[
  {
    "Molecule": "CCN1CCN(c2nc(-c3ccc(OCCCSC)cc3)cc3ccccc23)CC1 [Example 54, Hydrochloride]",
    "pKi": 7.21
  },
  {
    "Molecule": "CCN1CCN(c2nc(-c3ccc(NS(=O)(=O)CC)cc3)cc3ccccc23)CC1 [Example 71, Hydrochloride]",
    "pKi": 8.70
  },
  {
    "Molecule": "CCN1CCN(c2nc(-c3cccc(OCCO)c3)cc3ccoc23)CC1 [Example 298, dihydrochloride]",
    "pKi": 8.76
  },
  {
    "Molecule": "CCN1CCN(c2nc(-c3ccc(CNS(=O)(=O)CC)cc3)cc3ccccc23)CC1 [Example 78, Hydrochloride]",
    "pKi": 9.25
  },
  {
    "Molecule": "CCN1CCN(c2nc(C#Cc3ccccc3)cc3ccccc23)CC1 [Example 177, Dihydrochloride]",
    "pKi": 7.35
  },
  {
    "Molecule": "CCCCNC(=O)c1ccc(-c2cc3ccsc3c(N3CCN(CC)CC3)n2)cc1 [Example 452, dihydrochloride]",
    "pKi": 7.71
  }
]

I = CCN1CCN(c2nc(C(O)c3ccc(OC)cc3)cc3ccccc23)CC1 (stereo not shown) [Example 104, Oxalate]
II = CCN1CCN(c2nc(/C=C/c3cc(N4CCOCC4)ncn3)cc3ccccc23)CC1 [Example 215, oxalate]
III = CCCN(C)S(=O)(=O)c1ccc(-c2cc3ccccc3c(N3CCN(CC)CC3)n2)cc1 [Example 358, dihydrochloride]
Query string: Place the items in sequence of falling pKi. Labels, requested order.
Result string: III, II, I
